- System: Staphylococcus aureus USA 300
- assay info: ≥ marks a high value that may be exact or a test limit, other limits are often not marked, values filed in µg/mL are converted to µM
property name: MIC (µM)
State just the number; it will be interpreted in µM.

Please fill in: MIC reported for CC[C@H](C)[C@H](NC(=O)[C@H](CCCN=C(N)N)NC(=O)[C@H](CCC(N)=O)NC(=O)[C@@H](NC(=O)[C@@H](NC(=O)[C@H](CCCN=C(N)N)NC(=O)[C@H](CCCN=C(N)N)NC(=O)[C@H](Cc1ccccc1)NC(=O)[C@H](CCC(=O)O)NC(=O)CN)[C@@H](C)CC)C(C)C)C(=O)N[C@@H](CCCN=C(N)N)C(=O)N[C@@H](CC(=O)O)C(=O)N[C@@H](Cc1ccccc1)C(=O)N[C@@H](CC(C)C)C(=O)N[C@@H](CCCN=C(N)N)C(=O)N[C@@H](CC(N)=O)C(=O)N[C@@H](CC(C)C)C(=O)N[C@H](C(N)=O)C(C)C [GEFRRIVQRIRDFLRNLV] = 30

###

- Tested on: Streptococcus uberis
Measured MIC values are reported for all entries that follow.

Look over these answered cases.
[
  {
    "smiles string": "CC[C@H](C)[C@H](NC(=O)[C@H](CC(=O)O)NC(=O)[C@H](Cc1ccccc1)NC(=O)[C@H](CC(C)C)NC(=O)CN)C(=O)N[C@H](C(=O)N[C@@H](CCCCN)C(=O)N[C@@H](CCCCN)C(=O)N[C@H](C(=O)N[C@H](C(=O)NCC(=O)N[C@@H](C)C(=O)N[C@@H](CC(C)C)C(=O)NCC(=O)N[C@@H](CO)C(=O)N[C@@H](CC(C)C)C(N)=O)C(C)C)C(C)C)C(C)C",
    "MIC": "≥ 61.9 µM"
  },
  {
    "smiles string": "CC[C@H](C)[C@H](NC(=O)[C@@H](NC(=O)[C@H](C)NC(=O)[C@H](Cc1ccccc1)NC(=O)[C@H](CC(C)C)NC(=O)CN)C(C)C)C(=O)N[C@@H](CCCCN)C(=O)N[C@@H](CCCCN)C(=O)N[C@H](C(=O)N[C@@H](C)C(=O)N[C@@H](CO)C(=O)N[C@H](C(=O)N[C@H](C(=O)N[C@@H](CCCCN)C(=O)N[C@@H](CCCCN)C(=O)N[C@@H](CC(C)C)C(N)=O)[C@@H](C)CC)C(C)C)C(C)C",
    "MIC": "14.6 µM"
  },
  {
    "smiles string": "CC[C@H](C)[C@H](NC(=O)[C@@H](NC(=O)[C@H](C)NC(=O)[C@H](C)NC(=O)[C@@H](NC(=O)[C@H](CCCCN)NC(=O)[C@H](CCCCN)NC(=O)[C@@H](NC(=O)[C@@H](NC(=O)[C@H](C)NC(=O)[C@H](Cc1ccccc1)NC(=O)[C@H](CC(C)C)NC(=O)CN)C(C)C)[C@@H](C)CC)C(C)C)C(C)C)C(=O)N[C@@H](CCCCN)C(=O)N[C@@H](CCCCN)C(=O)N[C@@H](CC(C)C)C(N)=O",
    "MIC": "7.07 µM"
  }
]

The compound listed as `CC[C@H](C)[C@H](NC(=O)CNC(=O)CNC(=O)[C@@H](N)CC(C)C)C(=O)N[C@H](C(=O)N[C@@H](CO)C(=O)N[C@@H](C)C(=O)N[C@H](C(=O)N[C@@H](CCCCN)C(=O)N[C@@H](CCCCN)C(=O)N[C@H](C(=O)N[C@H](C(=O)N[C@@H](CC(=O)O)C(=O)N[C@@H](Cc1ccccc1)C(=O)N[C@@H](CC(C)C)C(=O)NCC(N)=O)C(C)C)[C@@H](C)CC)C(C)C)C(C)C` has a reported MIC of 30.9 µM

###

- Tested on: Enterococcus faecium
- assay info: ≥ marks a high value that may be exact or a test limit, other limits are often not marked, values filed in µg/mL are converted to µM
property name: MIC (µM)
Unit µM implied. Number only.

[
  {
    "compound": "CC[C@H](C)[C@H](NC(=O)CNC(=O)[C@H](CO)NC(=O)[C@H](CC(C)C)NC(=O)[C@@H](NC(=O)[C@H](CCCCN)NC(=O)CNC(=O)[C@@H](NC(=O)[C@H](CC(C)C)NC(=O)[C@@H]1CCCN1C(=O)[C@H](CC(C)C)NC(=O)[C@@H](N)Cc1ccccc1)[C@@H](C)CC)C(C)C)C(=O)N[C@@H](CC(C)C)C(N)=O [FLPLIGKVLSGIL]",
    "recorded measurement": 17.5
  }
]

Could you now look at the following compound, please?
The compound identified as CC[C@H](C)[C@H](NC(=O)[C@H](CS)NC(=O)[C@H](Cc1cnc[nH]1)NC(=O)[C@H](C)NC(=O)[C@H](C)N)C(=O)N[C@@H](CCC(N)=O)C(=O)N[C@@H](CC(C)C)C(=O)NCC(=O)N[C@@H](CCCCN)C(=O)N[C@@H](CCCN=C(N)N)C(N)=O [AAHCIQLGKR] registered its MIC at 30

###

- System: Staphylococcus aureus ATCC 6538P
property name: MIC (µM)
State just the number; it will be interpreted in µM.

Observe how each entry below is paired with its result.
[
  {
    "smiles string": "CC(C)C[C@H](NC(=O)[C@H](CCCCN)NC(=O)[C@H](CCCCN)NC(=O)[C@H](CC(C)C)NC(=O)[C@H](Cc1c[nH]c2ccccc12)NC(=O)[C@H](CCCCN)NC(=O)[C@H](CC(C)C)NC(=O)[C@H](CC(C)C)NC(=O)[C@H](CCCCN)NC(=O)[C@H](CCCCN)NC(=O)[C@@H](N)CC(C)C)C(N)=O",
    "recorded measurement": 1.42
  },
  {
    "smiles string": "CC(C)C[C@H](NC(=O)[C@H](Cc1c[nH]c2ccccc12)NC(=O)[C@H](CCCCN)NC(=O)[C@H](CCCCN)NC(=O)[C@H](CC(C)C)NC(=O)[C@H](Cc1c[nH]c2ccccc12)NC(=O)[C@H](CCCCN)NC(=O)[C@@H](N)CC(C)C)C(=O)N[C@@H](CCCCN)C(N)=O",
    "recorded measurement": 8.05
  }
]

Now turn to the next compound.
`CC(C)C[C@H](NC(=O)[C@H](CC(C)C)NC(=O)[C@H](CCCCN)NC(=O)[C@H](CCCCN)NC(=O)[C@H](CC(C)C)NC(=O)[C@H](CC(C)C)NC(=O)[C@H](CCCCN)NC(=O)[C@H](CCCCN)NC(=O)[C@H](CC(C)C)NC(=O)[C@@H](N)Cc1c[nH]c2ccccc12)C(=O)N[C@@H](CCCCN)C(N)=O` on Staphylococcus aureus ATCC 6538P gives MIC = 1.42

###

Recorded MIC values (Pasteurella multocida) are given below.

The cases that follow already have their MIC on record.
[
  {
    "smiles string": "CC[C@H](C)[C@H](NC(=O)[C@H](CC(=O)O)NC(=O)[C@H](Cc1ccccc1)NC(=O)[C@H](CC(C)C)NC(=O)CN)C(=O)N[C@H](C(=O)N[C@@H](CCCCN)C(=O)N[C@@H](CCCCN)C(=O)N[C@H](C(=O)N[C@H](C(=O)NCC(=O)N[C@@H](C)C(=O)N[C@@H](CC(C)C)C(=O)NCC(=O)N[C@@H](CO)C(=O)N[C@@H](CC(C)C)C(N)=O)C(C)C)C(C)C)C(C)C",
    "study target": "Pasteurella multocida",
    "MIC": "≥ 61.9 µM"
  },
  {
    "smiles string": "CC[C@H](C)[C@H](NC(=O)[C@@H](NC(=O)[C@H](C)NC(=O)[C@H](Cc1ccccc1)NC(=O)[C@H](CC(C)C)NC(=O)CN)C(C)C)C(=O)N[C@@H](CCCCN)C(=O)N[C@@H](CCCCN)C(=O)N[C@H](C(=O)N[C@@H](C)C(=O)N[C@@H](CO)C(=O)N[C@H](C(=O)N[C@H](C(=O)N[C@@H](CCCCN)C(=O)N[C@@H](CCCCN)C(=O)N[C@@H](CC(C)C)C(N)=O)[C@@H](C)CC)C(C)C)C(C)C",
    "study target": "Pasteurella multocida",
    "MIC": "≥ 58.3 µM"
  },
  {
    "smiles string": "CC[C@H](C)[C@H](NC(=O)CNC(=O)CNC(=O)[C@@H](N)CC(C)C)C(=O)N[C@H](C(=O)N[C@@H](CO)C(=O)N[C@@H](C)C(=O)N[C@H](C(=O)N[C@@H](CCCCN)C(=O)N[C@@H](CCCCN)C(=O)N[C@H](C(=O)N[C@H](C(=O)N[C@@H](CC(=O)O)C(=O)N[C@@H](Cc1ccccc1)C(=O)N[C@@H](CC(C)C)C(=O)NCC(N)=O)C(C)C)[C@@H](C)CC)C(C)C)C(C)C",
    "study target": "Pasteurella multocida",
    "MIC": "≥ 61.9 µM"
  }
]

Now consider the entry below.
Field MIC (entry `CC[C@H](C)[C@H](NC(=O)[C@@H](NC(=O)[C@H](C)NC(=O)[C@H](C)NC(=O)[C@@H](NC(=O)[C@H](CCCCN)NC(=O)[C@H](CCCCN)NC(=O)[C@@H](NC(=O)[C@@H](NC(=O)[C@H](C)NC(=O)[C@H](Cc1ccccc1)NC(=O)[C@H](CC(C)C)NC(=O)CN)C(C)C)[C@@H](C)CC)C(C)C)C(C)C)C(=O)N[C@@H](CCCCN)C(=O)N[C@@H](CCCCN)C(=O)N[C@@H](CC(C)C)C(N)=O` ) reads ≥ 58.9 µM
